test: CCTE_Mundy_HCI_Cortical_Synap_Neur_Matur_BPCount: CCTE's Synaptogenesis and Neurite Maturation Assay in rat cortical cells for Branch Point Count, Mundy Lab (AID 2284211)
Activity calls are given as the source filed them. Rule for the calls: active = hit-call score of the fitted dose curve at least 0.9, where 1 is the maximum; inactive = score below 0.9.
Pick one: active, inactive

Example entries and their recorded answers appear below.
1) COc1cc2c(c(OC)c1OC)-c1ccc(OC)c(=O)cc1[C@@H](NC(C)=O)CC2 ... active
2) NC(=O)N1c2ccccc2C=Cc2ccccc21 ... inactive
3) CCCC(CCC)C(=O)O ... inactive

Okay, now this compound:
[in] I'd appreciate the recorded outcome for C[C@]12C=CC(=O)C=C1CC[C@H]1[C@@H]3C[C@@H](O)[C@](O)(C(=O)CO)[C@@]3(C)C[C@H](O)[C@@]12F from this test.
[out] active
